Values from patent US20240116985A1

Target: beta-catenin/TCF4 engagement (Homo sapiens)
Construct: expressed in transfected cells; host or cells: HEK293
Sequence (P35222 1-781): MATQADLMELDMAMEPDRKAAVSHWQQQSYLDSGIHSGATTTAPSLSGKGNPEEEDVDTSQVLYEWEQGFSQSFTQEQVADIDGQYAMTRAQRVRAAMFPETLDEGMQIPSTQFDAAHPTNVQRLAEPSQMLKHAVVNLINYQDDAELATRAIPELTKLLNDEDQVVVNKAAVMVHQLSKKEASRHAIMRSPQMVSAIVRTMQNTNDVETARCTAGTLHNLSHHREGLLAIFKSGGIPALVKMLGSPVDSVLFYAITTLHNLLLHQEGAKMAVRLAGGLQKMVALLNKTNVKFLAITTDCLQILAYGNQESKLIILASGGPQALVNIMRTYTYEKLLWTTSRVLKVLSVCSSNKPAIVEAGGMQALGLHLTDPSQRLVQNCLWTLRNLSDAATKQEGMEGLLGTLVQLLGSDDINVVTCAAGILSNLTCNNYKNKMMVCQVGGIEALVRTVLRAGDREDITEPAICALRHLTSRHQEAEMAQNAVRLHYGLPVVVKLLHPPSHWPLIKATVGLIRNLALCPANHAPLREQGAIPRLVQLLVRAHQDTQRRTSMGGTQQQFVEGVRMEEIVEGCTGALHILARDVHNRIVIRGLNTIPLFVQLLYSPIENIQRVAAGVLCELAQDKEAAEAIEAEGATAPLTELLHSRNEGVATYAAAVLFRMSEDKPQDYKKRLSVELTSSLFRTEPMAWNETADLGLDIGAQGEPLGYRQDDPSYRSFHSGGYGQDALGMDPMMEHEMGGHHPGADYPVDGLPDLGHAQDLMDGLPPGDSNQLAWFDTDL
Assay: Nano-BRET target engagement assay (B-cat-Halo & TCF4-Luc in HEK293 cells)
Assay type: cell-based
Conditions: absolute IC50; read-out: NanoBRET Abs IC50
Returns: string. Value is Satisfied if measured IC50 is below 20 µM, and Not satisfied if it is greater than or equal to it.

CC(=O)N1CCC[C@]12CC=CCCCC1(CCCC=CCCCOC(=O)N3CC[C@@](C(=O)N[C@@H](Cc4ccsc4)C(=O)N[C@@H](Cc4csc5ccccc45)C(=O)N[C@@H](CCC(N)=O)C(N)=O)(C3)NC(=O)[C@H](CCCN3CCC(F)(F)CC3)NC(=O)[C@H](Cc3ccccc3)NC(=O)[C@H](C)NC(=O)[C@H](C)NC(=O)[C@H](CC(=O)O)NC(=O)[C@H](CC(=O)O)NC1=O)NC(=O)[C@H](CC(C)(C)C)NC(=O)[C@H](CC(=O)O)NC2=O (stereo partly drawn)
Satisfied

(Q) Please state whether IC50 is below 20 µM for CC(=O)N1CCC[C@]12CC=CCCCC1(CCCC=CCCCOC(=O)N3CC[C@@](C(=O)N[C@@H](Cc4ccsc4)C(=O)N[C@@H](Cc4csc5ccccc45)C(=O)N[C@H](C(N)=O)C(C)C)(C3)NC(=O)[C@H](CC(C)C)NC(=O)[C@H](Cc3ccccc3)NC(=O)[C@H](C)NC(=O)[C@H](CCCCNC(C)C)NC(=O)[C@H](CN(CC(=O)O)CC(F)(F)F)NC(=O)[C@H](CC(=O)O)NC1=O)NC(=O)[C@H](CC(C)(C)C)NC(=O)[C@H](CC(=O)O)NC2=O (stereo partly drawn)
(A) Not satisfied

(Q) Please state whether IC50 is below 20 µM for CC(=O)N1CCC[C@]12CC=CCCCC1(CCCC=CCCCOC(=O)N3CC[C@@](C(=O)N[C@@H](Cc4ccccc4Cl)C(=O)N[C@@H](Cc4csc5ccccc45)C(=O)N[C@@H](CCC(N)=O)C(N)=O)(C3)NC(=O)[C@H](CC(C)C)NC(=O)[C@H](Cc3ccccc3)NC(=O)CNC(=O)[C@H](C)NC(=O)[C@H](Cc3cccc(C(=O)O)c3)NC(=O)[C@H](CC(=O)O)NC1=O)NC(=O)[C@H](CC(C)(C)C)NC(=O)[C@H](CC(=O)O)NC2=O (stereo partly drawn)
(A) Satisfied

(Q) Please state whether IC50 is below 20 µM for CC(=O)N1CCC[C@]12CC=CCCCC1(CCCC=CCCCOC(=O)N3CC[C@@](C(=O)N[C@@H](Cc4ccsc4)C(=O)N[C@@H](Cc4csc5ccccc45)C(=O)N[C@@H](Cc4ccccc4)C(N)=O)(C3)NC(=O)[C@H]([C@@H](C)O)NC(=O)[C@H](Cc3ccccc3)NC(=O)[C@H](C)NC(=O)[C@H](CCCCNC(C)C)NC(=O)[C@H](CN(CC(=O)O)CC(F)(F)F)NC(=O)[C@H](CC(=O)O)NC1=O)NC(=O)[C@H](CC(C)(C)C)NC(=O)[C@H](CC(=O)O)NC2=O (stereo partly drawn)
(A) Not satisfied

(Q) Please state whether IC50 is below 20 µM for CC(=O)N1CCC[C@]12CC=CCCCC1(CCCC=CCCCCCC[C@@](C)(C(=O)N[C@@H](Cc3ccccc3)C(=O)N[C@@H](Cc3csc4ccccc34)C(=O)N[C@@H](Cc3c[nH]cn3)C(N)=O)NC(=O)[C@H](CC(N)=O)NC(=O)[C@H](Cc3ccccc3)NC(=O)[C@H](C)NC(=O)[C@H](C)NC(=O)[C@H](CCC(=O)O)NC(=O)[C@H](CC(=O)O)NC1=O)NC(=O)[C@H](CC(C)C)NC(=O)[C@H](CC(=O)O)NC2=O (stereo partly drawn)
(A) Satisfied
